assay: Solubility in water and bio-relevant media at 37° C. (HPLC of filtrate, pH of filtrate, XRPD of filter cake); type: physicochemical; details: SGF, 37° C., 2 h; LOQ is 0.5 μg/mL
measure: Solubility (mg/mL) 2 h

Cc1nn(-c2cc(Cl)c(Oc3cc(C(C)C)c(=O)[nH]n3)c(Cl)c2)c(=O)[n-]c1=O.[Na+] [Sodium salt Form A]; <LOQ
Cc1nn(-c2cc(Cl)c(Oc3cc(C(C)C)c(=O)[nH]n3)c(Cl)c2)c(=O)[n-]c1=O.[K+] [Potassium salt Form 1]; <LOQ
Cc1nn(-c2cc(Cl)c(Oc3cc(C(C)C)c(=O)[nH]n3)c(Cl)c2)c(=O)[nH]c1=O [Free acid Form I]; <LOQ
Cc1nn(-c2cc(Cl)c(Oc3cc(C(C)C)c(=O)[nH]n3)c(Cl)c2)c(=O)[n-]c1=O.[K+] [Potassium salt Form 2]; <LOQ

###

# PH 24 h per entry
experiment: Solubility in water and bio-relevant media at 37° C. (HPLC of filtrate, pH of filtrate, XRPD of filter cake); format: physicochemical; conditions: pH of the filtrate, SGF, 24 h

Cc1nn(-c2cc(Cl)c(Oc3cc(C(C)C)c(=O)[nH]n3)c(Cl)c2)c(=O)[nH]c1=O [Free acid Form I]; 1.16
Cc1nn(-c2cc(Cl)c(Oc3cc(C(C)C)c(=O)[nH]n3)c(Cl)c2)c(=O)[n-]c1=O.[Na+] [Sodium salt Form A]; 1.24

IN: Specify measured PH 24 h for Cc1nn(-c2cc(Cl)c(Oc3cc(C(C)C)c(=O)[nH]n3)c(Cl)c2)c(=O)[n-]c1=O.[K+] [Potassium salt Form 1] .
OUT: 1.25

IN: Answer with the recorded PH 24 h for the molecule listed here: Cc1nn(-c2cc(Cl)c(Oc3cc(C(C)C)c(=O)[nH]n3)c(Cl)c2)c(=O)[n-]c1=O.[K+] [Potassium salt Form 2]
OUT: 1.25

###

Experiment: Solubility in water and bio-relevant media at 37° C. (HPLC of filtrate, pH of filtrate, XRPD of filter cake)
Type: physicochemical
Details: FeSSIF (Fed State Simulated Intestinal Fluid), 37 °C, fessif, thermodynamic from solid, FeSSIF, 37° C., 2 h; read-out: Solubility (mg/mL) 2 h
Method: Solubility of Form I of free acid, Form 1 and Form 2 of potassium salt, and Form A of sodium salt were tested in water and in bio-relevant media of Simulated Intestinal Fluid (SIF), Simulated Gastric Fluid (SGF), Fasted State Simulated Intestinal Fluid (FaSSIF), and Fed State Simulated Intestinal Fluid (FeSSIF) at 37° C. up to 24 hours. About 12 mg of the sample was weighed into sample vials and then 1.5 mL of each media was added to make suspensions respectively. […]
Listed compounds paired with reported solubility at 2 h
Unit mg/mL implied. Number only.

Cc1nn(-c2cc(Cl)c(Oc3cc(C(C)C)c(=O)[nH]n3)c(Cl)c2)c(=O)[n-]c1=O.[K+] [Potassium salt Form 1]; 0.0089

Then this compound:
IN: Indicate the recorded solubility at 2 h value for this compound: Cc1nn(-c2cc(Cl)c(Oc3cc(C(C)C)c(=O)[nH]n3)c(Cl)c2)c(=O)[n-]c1=O.[Na+] [Sodium salt Form A]
OUT: 0.0029

###

assay: Solid state stability at 60° C. and 40° C./75% RH for 7 days (HPLC purity, XRPD); type: physicochemical; settings: 7 days at 60° C., HPLC
measure: Purity at Day 7 (Area %) 60° C.
Please reply with the bare figure in Area % and do not write the unit itself.

Cc1nn(-c2cc(Cl)c(Oc3cc(C(C)C)c(=O)[nH]n3)c(Cl)c2)c(=O)[n-]c1=O.[Na+] [Sodium salt Form A]; 98.01

IN: Read off the recorded Purity at Day 7 (Area %) 60° C. for Cc1nn(-c2cc(Cl)c(Oc3cc(C(C)C)c(=O)[nH]n3)c(Cl)c2)c(=O)[n-]c1=O.[K+] [Potassium salt Form 1]
OUT: 99.50

IN: Look up and state reported Purity at Day 7 (Area %) 60° C. for Cc1nn(-c2cc(Cl)c(Oc3cc(C(C)C)c(=O)[nH]n3)c(Cl)c2)c(=O)[nH]c1=O [Free acid Form I]
OUT: 96.47

IN: Find the measured Purity at Day 7 (Area %) 60° C. of Cc1nn(-c2cc(Cl)c(Oc3cc(C(C)C)c(=O)[nH]n3)c(Cl)c2)c(=O)[n-]c1=O.[K+] [Potassium salt Form 2] and report it.
OUT: 99.07
